B1: EEHEE_rd4_0469 (parent)
chain: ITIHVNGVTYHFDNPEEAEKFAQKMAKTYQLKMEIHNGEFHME

- Variants of: B1
- protocol notes: folding stability dG (cDNA display proteolysis); higher = more stable
- conditions: PBS, room temperature
Please use label 1 whenever folding stability dG is not below 1 kcal/mol, and label 0 whenever it is.

(Q) Please indicate if the recorded folding stability dG for G7D meets or exceeds 1 kcal/mol.
(A) label 0

(Q) Exam item: decide whether the reported folding stability dG for Y29F is at least 1 kcal/mol.
(A) label 0

(Q) Hi, just wondering whether M42Q shows folding stability dG of 1 kcal/mol or higher.
(A) label 0

(Q) Check the entry V8H : does folding stability dG equal or exceed 1 kcal/mol?
(A) label 1

(Q) For this variant, is measured folding stability dG 1 kcal/mol or higher? L31F
(A) label 1

(Q) Is reported folding stability dG greater than or equal to 1 kcal/mol here: V5W
(A) label 1

(Q) Would you say E16R shows folding stability dG at minimum 1 kcal/mol?
(A) label 1

(Q) Textbook exercise: given the entry L31V , state whether its folding stability dG is greater than or equal to 1 kcal/mol.
(A) label 1

(Q) Does D13P have a reported folding stability dG of at least 1 kcal/mol?
(A) label 1

(Q) For this variant, is measured folding stability dG 1 kcal/mol or higher? E39H
(A) label 1

(Q) Check if folding stability dG >= 1 kcal/mol (inclusive). Item: V5I
(A) label 1

(Q) Determine whether measured folding stability dG meets or exceeds 1 kcal/mol for E39S
(A) label 0

(Q) folding stability dG >= 1 kcal/mol for P15L ?
(A) label 1

(Q) Is folding stability dG at least 1 kcal/mol? Consider H41L
(A) label 0

(Q) Assess whether reported folding stability dG for H11I sits at 1 kcal/mol or higher.
(A) label 1

(Q) Hi, just wondering whether K20D shows folding stability dG of 1 kcal/mol or higher.
(A) label 1

(Q) Please tell me: is the variant D13G at or over 1 kcal/mol in terms of folding stability dG?
(A) label 1

(Q) folding stability dG >= 1 kcal/mol for H36Y ?
(A) label 1

(Q) Can A18M be said to have folding stability dG at or above 1 kcal/mol?
(A) label 0

(Q) Reported folding stability dG at or above 1 kcal/mol? K24L
(A) label 1

(Q) Check if folding stability dG >= 1 kcal/mol (inclusive). Item: E39L
(A) label 0

(Q) Evaluate G7E : folding stability dG at minimum 1 kcal/mol?
(A) label 0
